All figures here come from paper PMC12670426.

// reported CC50 at 24 h for each item listed
METHOD DESCRIPTION: Cytotoxicity assay, HEK293
Assay type: cell-based
CONDITION DESCRIPTION: human, HEK293 cells, viability dye, flow cytometry

INSERT INTO results (molecule, attribute_measured, result) VALUES
  ('CC(=O)N(c1cc(C(=O)O)cc2[nH]ccc12)[C@@H]1O[C@H](CO)[C@@H](S[C@@H]2O[C@H](CO)[C@H](O)[C@H](n3cc(-c4cccc(F)c4)nn3)[C@H]2O)[C@H](O)[C@H]1O', 'CC50 at 24 h', '> 300 µM');

We next turn to a different molecule, shown below.
The molecule OC[C@H]1O[C@@H](S[C@@H]2O[C@H](CO)[C@H](O)[C@H](n3cc(-c4cccc(F)c4)nn3)[C@H]2O)[C@H](O)[C@@H](n2cc(-c3cccc(F)c3)nn2)[C@H]1O [GB0139, reference compound] showed CC50 at 24 h equal to > 300 µM

###

// Kd lookup, one value per entry
TESTED SYSTEM: human galectin-3C (Gal-3C, C-terminal CRD of galectin-3) (Homo sapiens, UniProt P17931)
Construct: only the C-terminal domain was used (Gal-3C); 6xHis tag with TEV protease site (N, cleaved yes); made in house; host or cells: BL21 Escherichia coli (pET-15b)
Sequence (P17931 118-248 limits assumed): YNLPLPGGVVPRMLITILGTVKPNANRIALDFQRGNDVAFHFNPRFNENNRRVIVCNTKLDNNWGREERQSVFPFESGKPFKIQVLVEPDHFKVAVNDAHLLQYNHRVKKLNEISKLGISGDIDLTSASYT
METHOD DESCRIPTION: Competitive fluorescence polarization assay, Gal-3C
Format: binding
CONDITION DESCRIPTION: CSV supplement, unrounded mean; read-out: Gal3C_Kd_mean_uM
Provide only the numeric value, understood in µM.

Example results:
INSERT INTO results (compound_structure, tested_system, quantitative_result) VALUES
  ('C#Cc1cccc(N(C(C)=O)[C@@H]2O[C@H](CO)[C@@H](O[C@@H]3O[C@H](CO)[C@H](O)[C@H](O)[C@H]3O)[C@H](O)[C@H]2O)c1', 'human galectin-3C (Gal-3C, C-terminal CRD of galectin-3) (Homo sapiens, UniProt P17931)', 182),
  ('CC(=O)N(c1cc(C(=O)O)cc2[nH]ccc12)[C@@H]1O[C@H](CO)[C@@H](O[C@@H]2O[C@H](CO)[C@H](O)[C@H](O)[C@H]2O)[C@H](O)[C@H]1O', 'human galectin-3C (Gal-3C, C-terminal CRD of galectin-3) (Homo sapiens, UniProt P17931)', 4.15);

Shift focus to the following entry.
So for COC(=O)c1cc(N(C(C)=O)[C@@H]2O[C@H](CO)[C@@H](O[C@@H]3O[C@H](CO)[C@H](O)[C@H](O)[C@H]3O)[C@H](O)[C@H]2O)c2cc[nH]c2c1 , the logged Kd turned out to be 15.9

###

TESTED SYSTEM: human galectin-1 (Gal-1, full length) (Homo sapiens)
Construct: Gal-1 is a prototype galectin consisting of a single CRD and was used in full length; 6xHis tag with TEV protease site (N, cleaved yes); made in house; host or cells: BL21 Escherichia coli (pET-15b)
Sequence (P09382 2-135): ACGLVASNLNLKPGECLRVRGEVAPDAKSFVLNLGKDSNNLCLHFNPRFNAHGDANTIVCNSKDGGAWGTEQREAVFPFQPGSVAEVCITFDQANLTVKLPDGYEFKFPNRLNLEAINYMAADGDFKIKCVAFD
METHOD DESCRIPTION: Competitive fluorescence polarization assay, Gal-1
Format: binding
CONDITION DESCRIPTION: CSV supplement, unrounded mean; read-out: Gal1_Kd_mean_uM
The entries below are paired with their reported Kd.

Sample records with Kd:
INSERT INTO results (compound_structure, attribute_measured, result) VALUES
  ('CC(=O)N(c1cccc(-c2nnn[nH]2)c1)[C@@H]1O[C@H](CO)[C@@H](O[C@@H]2O[C@H](CO)[C@H](O)[C@H](O)[C@H]2O)[C@H](O)[C@H]1O', 'Kd', '812 µM'),
  ('CC(C)C(=O)N(c1cccc(C(=O)O)c1)[C@@H]1O[C@H](CO)[C@@H](O[C@@H]2O[C@H](CO)[C@H](O)[C@H](O)[C@H]2O)[C@H](O)[C@H]1O', 'Kd', '1000 µM'),
  ('CC(=O)N(c1cccc(-c2ccc(C)o2)c1)[C@@H]1O[C@H](CO)[C@@H](O[C@@H]2O[C@H](CO)[C@H](O)[C@H](O)[C@H]2O)[C@H](O)[C@H]1O', 'Kd', '558 µM');

The recorded Kd with human galectin-1 (Gal-1, full length) (Homo sapiens) for CC(=O)N(c1ccc(Cl)cc1)[C@@H]1O[C@H](CO)[C@@H](O[C@@H]2O[C@H](CO)[C@H](O)[C@H](O)[C@H]2O)[C@H](O)[C@H]1O was 363 µM

Bench note, human galectin-1 (Gal-1, full length) (Homo sapiens): entry CC(=O)N(c1cccc(F)c1)[C@@H]1O[C@H](CO)[C@@H](O[C@@H]2O[C@H](CO)[C@H](O)[C@H](O)[C@H]2O)[C@H](O)[C@H]1O , its Kd = 361 µM

Value (Kd, human galectin-1 (Gal-1, full length) (Homo sapiens)) for record CC(=O)N(c1cc(F)c(F)c(F)c1)[C@@H]1O[C@H](CO)[C@@H](O[C@@H]2O[C@H](CO)[C@H](O)[C@H](O)[C@H]2O)[C@H](O)[C@H]1O = 314 µM

Kd value, target or system human galectin-1 (Gal-1, full length) (Homo sapiens), for CC(=O)N(c1ccc2c(c1)OCO2)[C@@H]1O[C@H](CO)[C@@H](O[C@@H]2O[C@H](CO)[C@H](O)[C@H](O)[C@H]2O)[C@H](O)[C@H]1O : 545 µM

###

Reported pIC50 values for the following compounds.
TESTED SYSTEM: human galectin-1 (Gal-1, full length) (Homo sapiens)
Construct: Gal-1 is a prototype galectin consisting of a single CRD and was used in full length; 6xHis tag with TEV protease site (N, cleaved yes); made in house; host or cells: BL21 Escherichia coli (pET-15b)
METHOD DESCRIPTION: Competitive fluorescence polarization assay, Gal-1
Type: binding
CONDITION DESCRIPTION: four-parameter logistic model; mean ± SD; read-out: IC50 Gal-1
Protocol: Our investigation of the structure–activity relationship of N-aryl-N-lactosylamides started with an initial screening of substituted acetanilides (Table ). These compounds can be readily synthesized from a wide range of commercially available substituted anilines. Affinity was evaluated using a fluorescence polarization assay, which enables reliable determination of dissociation constants (K d) between small molecules and galectins. […]
Just so you know, pIC50 here is -log10 of the concentration in molar units; reply with that number alone.

pIC50 reported for this compound CC(=O)N(c1ccc(F)c(F)c1)[C@@H]1O[C@H](CO)[C@@H](O[C@@H]2O[C@H](CO)[C@H](O)[C@H](O)[C@H]2O)[C@H](O)[C@H]1O : 3.22

Consider CC(=O)N(c1cccc(C(F)(F)F)c1)[C@@H]1O[C@H](CO)[C@@H](O[C@@H]2O[C@H](CO)[C@H](O)[C@H](O)[C@H]2O)[C@H](O)[C@H]1O . Its measured pIC50 is 3.00

Recorded pIC50 (compound CC(=O)c1c[nH]c2cc(C(=O)O)cc(N(C(C)=O)[C@@H]3O[C@H](CO)[C@@H](S[C@@H]4O[C@H](CO)[C@H](O)[C@H](n5cc(-c6cccc(F)c6)nn5)[C@H]4O)[C@H](O)[C@H]3O)c12 ): 5.14

###

TESTED SYSTEM: human galectin-1 (Gal-1, full length) (Homo sapiens)
Construct: Gal-1 is a prototype galectin consisting of a single CRD and was used in full length; 6xHis tag with TEV protease site (N, cleaved yes); made in house; host or cells: BL21 Escherichia coli (pET-15b)
METHOD DESCRIPTION: Competitive fluorescence polarization assay, Gal-1
Assay type: binding
CONDITION DESCRIPTION: competitive fluorescence polarization; mean ± SD; read-out: Kd Gal-1
ATTRIBUTE MEASURED: pKd
For clarity, pKd is expressed as the negative log10 of concentration in mol/L.

Consider the following illustrative entries.
INSERT INTO assay_data (molecule, tested_system, attribute_measured, quantitative_result) VALUES
  ('COC(=O)c1cc(N(C(C)=O)[C@@H]2O[C@H](CO)[C@@H](O[C@@H]3O[C@H](CO)[C@H](O)[C@H](O)[C@H]3O)[C@H](O)[C@H]2O)c2cc[nH]c2c1 [Compound 3ae]', 'human galectin-1 (Gal-1, full length) (Homo sapiens)', 'pKd', 3.19),
  ('CC(=O)N(c1cccc(C(=O)O)c1)[C@@H]1O[C@H](CO)[C@@H](O[C@@H]2O[C@H](CO)[C@H](O)[C@H](O)[C@H]2O)[C@H](O)[C@H]1O [Compound 3r]', 'human galectin-1 (Gal-1, full length) (Homo sapiens)', 'pKd', 3.07),
  ('CC(=O)N(c1ccccc1F)[C@@H]1O[C@H](CO)[C@@H](O[C@@H]2O[C@H](CO)[C@H](O)[C@H](O)[C@H]2O)[C@H](O)[C@H]1O [Compound 3g]', 'human galectin-1 (Gal-1, full length) (Homo sapiens)', 'pKd', 3.29),
  ('CC(=O)N(c1ccc(F)c(F)c1)[C@@H]1O[C@H](CO)[C@@H](O[C@@H]2O[C@H](CO)[C@H](O)[C@H](O)[C@H]2O)[C@H](O)[C@H]1O [Compound 3h]', 'human galectin-1 (Gal-1, full length) (Homo sapiens)', 'pKd', 3.40);

Next:
Lab book: pKd of COC(=O)c1cccc(N(C(C)=O)[C@@H]2O[C@H](CO)[C@@H](O[C@@H]3O[C@H](CO)[C@H](O)[C@H](O)[C@H]3O)[C@H](O)[C@H]2O)c1 [Compound 3v] noted as 3.37
